experiment: ATG_TCF_b_cat_CIS: Attagene CIS-FACTORIAL HepG2 Assay for human T-Cell-Factor with beta-catenin (TCF/b-cat) (AID 2282965); settings: HepG2 TCF/beta-catenin cis-reporter transcription, actives raise or lower the signal
Activity calls are given as the source filed them. How the source made its calls: active means hit-call score of the fitted dose curve at least 0.9, where 1 is the maximum; inactive means score below 0.9.
Respond using exactly one of the listed classes: active, inactive

Known results for compounds:
compound=Nc1c(Cl)c(Cl)c(Cl)c(Cl)c1Cl class=inactive
compound=Nc1ccccc1 class=inactive
compound="CCC(C)c1cc([N+](=O)[O-])cc([N+](=O)[O-])c1OC(=O)C=C(C)C (stereo not drawn)" class=active
compound=COC(C)(C)CCC[C@H](C)C/C=C/C(C)=C/C(=O)OC(C)C class=inactive
compound=Cl/C=C\CCl class=inactive
compound=ClCC(Cl)Cl class=inactive
compound=O=C(O)CCl class=inactive

# evaluate next
What was the test verdict on ClCCCCCCCl ?
inactive
